System: Blumeria graminis f. sp. tritici
Assay: Test C: test suspension sprayed on wheat seedlings, inoculated next day with Blumeria graminis f. sp. tritici (wheat powdery mildew); visual disease rating (100 = 100% disease control, 0 = no control; dash = not tested)
Format: in vivo
Settings: 50 ppm
Protocol: The resulting test suspensions were then used in Tests A-F. The test suspension was sprayed to the point of run-off on wheat seedlings. The following day the seedlings were inoculated with a spore dust of Blumeria graminis f. sp. tritici, (also known as Erysiphe graminis f. sp. tritici, the causal agent of wheat powdery mildew) and incubated in a growth chamber at 20° C. for 8 days, after which time visual disease ratings were made. […]
recorded_metric: Test C disease control rating (%)
Give bare numbers, in %.

COc1c(-c2ccc(F)cc2Cl)c(-c2cccc(Cl)c2Cl)nn(C)c1=O :: 100

Would you be so kind as to report Test C disease control rating for each listed record?
1. COc1cc(-c2nn(C)c(=O)c(Cl)c2-c2ccc(F)cc2Cl)cc(C#N)c1Cl
2. CCc1c(-c2ccc(F)cc2Cl)c(-c2cc(F)ccc2Cl)nn(C)c1=O
3. COc1c(-c2ccc(F)cc2Cl)c(-c2cc(F)ccc2Br)nn(C)c1=O

[99, 100, 99]

###

System: Blumeria graminis f. sp. tritici
Experiment: Test C: test suspension sprayed on wheat seedlings, inoculated next day with Blumeria graminis f. sp. tritici (wheat powdery mildew); visual disease rating (100 = 100% disease control, 0 = no control; dash = not tested)
Assay type: in vivo
Conditions: 50 ppm
recorded_metric: Test C disease control rating (%)
Give bare numbers, in %.

Consider the worked cases shown below.
COc1cc(F)c(F)c(-c2nn(C)c(=O)c(C)c2-c2ccc(F)cc2Cl)c1 :: 100
Cn1nc(-c2cccc(Cl)c2F)c(-c2ccc(F)cc2Cl)c(Cl)c1=O :: 99
COc1cc(OC)c(Br)c(-c2nn(C)c(=O)c(Br)c2-c2ccc(F)cc2Cl)c1 :: 94

Kindly review the next molecule as well.
// Input: `COc1ccc(Cl)c(-c2nn(C)c(=O)c(OC)c2-c2ccc(F)cc2Cl)c1` . Output its Test C disease control rating only.
99

###

Tested on: Botrytis cinerea
Assay: Test E: test suspension sprayed on tomato seedlings, inoculated next day with Botrytis cinerea (tomato Botrytis); visual disease rating (100 = 100% disease control, 0 = no control; dash = not tested)
Type: in vivo
Details: 250 ppm
recorded_metric: Test E disease control rating (%)
Answers are plain numbers, in %.

Consider the worked cases shown below.
CON(C)C(=O)c1c(-c2ccc(F)cc2Cl)c(-c2ccc(F)cc2Cl)nn(C)c1=O :: 0
Cn1nc(-c2ccccc2)c(-c2c(F)cccc2F)c(Cl)c1=O :: 100

Would you be so kind as to report Test E disease control rating for each listed record?
1. COc1cc(F)cc(-c2nn(C)c(=O)cc2-c2c(F)cccc2F)c1
2. Cn1nc(-c2ccccc2)c(-c2c(F)cccc2F)cc1=O
3. Cn1nc(-c2cc(F)ccc2Cl)c(-c2c(F)cccc2F)cc1=O
4. CCn1nc(-c2cc(OC)cc(OC)c2)c(-c2c(F)cccc2F)cc1=O
5. CCN1N=C(c2cc(OC)cc(OC)c2)C(c2ccc(F)cc2Cl)CC1=O (stereo not drawn)
6. COc1cc(OC)cc(-c2nn(C)c(=O)cc2-c2ccc(F)cc2Cl)c1
7. CCn1nc(-c2cc(OC)cc(OC)c2)c(-c2ccc(F)cc2Cl)cc1=O

[96, 99, 100, 80, 0, 99, 99]
